molecular target: CDK12 (Homo sapiens); test: Western blot degradation of CDK12 (Example 3); type: cell-based; parameters: degradation of CDK12/13 protein in leukemia cells KASUMI-1, MV4-11, and Jurkat; endogenous in cells; settings: DC50 classes; cell line not given; read-out: CDK12 degradation Activity
Reported DC50 by item:

Consider the reported DC50 for these compounds:
CC(=O)N(c1ccc(-c2cnc(OC3CN(c4ccc5c(c4)C(=O)N(C4CCC(=O)NC4=O)C5=O)C3)nc2)cc1)[C@H]1CC[C@H](Nc2ncc3ccccc3n2)CC1 (some centres unmarked) = 100 to 500 nM
CC(=O)N(c1ccc(-c2cnc(N3CCN(c4cc(NC5CCC(=O)NC5=O)ccc4F)CC3)nc2)cc1)[C@H]1CC[C@H](Nc2ncc3ccccc3n2)CC1 (some centres unmarked) = 1000 to 3000 nM
CC(=O)N(c1ccc(-c2cnc(N3CCN(c4cc(C(C(=O)N5C[C@H](O)C[C@H]5C(=O)N[C@@H](C)c5ccc(-c6scnc6C)cc5)C(C)C)on4)CC3)nc2)cc1)[C@H]1CC[C@@H](Nc2ncc3ccccc3n2)CC1 (single isomer, unassigned) = < 100 nM
CC(=O)N(c1ccc(N2CCN(CC3CN(c4ccc5c(c4)C(=O)N(C4CCC(=O)NC4=O)C5=O)C3)CC2)cc1)[C@H]1CC[C@H](Nc2ncc3ccccc3n2)CC1 (some centres unmarked) = 500 to 1000 nM

Now look at this entry.
// query Bench note: what DC50 did CC(=O)N(c1ccc(-c2cnn(CC3CN(c4ccc5c(c4)C(=O)N(C4CCC(=O)NC4=O)C5=O)C3)c2)cc1)[C@H]1CC[C@H](Nc2ncc3ccccc3n2)CC1 (some centres unmarked) show?
// result 1000 to 3000 nM

###

Reported DC50 by item:
molecular target: CDK13 (Homo sapiens); assay: Western blot degradation of CDK13 (Example 3); assay type: cell-based; design: degradation of CDK12/13 protein in leukemia cells KASUMI-1, MV4-11, and Jurkat; endogenous in cells; conditions: DC50 classes; cell line not given; read-out: CDK13 degradation Activity
Sequence (Q14004 whole entry, one chain of several): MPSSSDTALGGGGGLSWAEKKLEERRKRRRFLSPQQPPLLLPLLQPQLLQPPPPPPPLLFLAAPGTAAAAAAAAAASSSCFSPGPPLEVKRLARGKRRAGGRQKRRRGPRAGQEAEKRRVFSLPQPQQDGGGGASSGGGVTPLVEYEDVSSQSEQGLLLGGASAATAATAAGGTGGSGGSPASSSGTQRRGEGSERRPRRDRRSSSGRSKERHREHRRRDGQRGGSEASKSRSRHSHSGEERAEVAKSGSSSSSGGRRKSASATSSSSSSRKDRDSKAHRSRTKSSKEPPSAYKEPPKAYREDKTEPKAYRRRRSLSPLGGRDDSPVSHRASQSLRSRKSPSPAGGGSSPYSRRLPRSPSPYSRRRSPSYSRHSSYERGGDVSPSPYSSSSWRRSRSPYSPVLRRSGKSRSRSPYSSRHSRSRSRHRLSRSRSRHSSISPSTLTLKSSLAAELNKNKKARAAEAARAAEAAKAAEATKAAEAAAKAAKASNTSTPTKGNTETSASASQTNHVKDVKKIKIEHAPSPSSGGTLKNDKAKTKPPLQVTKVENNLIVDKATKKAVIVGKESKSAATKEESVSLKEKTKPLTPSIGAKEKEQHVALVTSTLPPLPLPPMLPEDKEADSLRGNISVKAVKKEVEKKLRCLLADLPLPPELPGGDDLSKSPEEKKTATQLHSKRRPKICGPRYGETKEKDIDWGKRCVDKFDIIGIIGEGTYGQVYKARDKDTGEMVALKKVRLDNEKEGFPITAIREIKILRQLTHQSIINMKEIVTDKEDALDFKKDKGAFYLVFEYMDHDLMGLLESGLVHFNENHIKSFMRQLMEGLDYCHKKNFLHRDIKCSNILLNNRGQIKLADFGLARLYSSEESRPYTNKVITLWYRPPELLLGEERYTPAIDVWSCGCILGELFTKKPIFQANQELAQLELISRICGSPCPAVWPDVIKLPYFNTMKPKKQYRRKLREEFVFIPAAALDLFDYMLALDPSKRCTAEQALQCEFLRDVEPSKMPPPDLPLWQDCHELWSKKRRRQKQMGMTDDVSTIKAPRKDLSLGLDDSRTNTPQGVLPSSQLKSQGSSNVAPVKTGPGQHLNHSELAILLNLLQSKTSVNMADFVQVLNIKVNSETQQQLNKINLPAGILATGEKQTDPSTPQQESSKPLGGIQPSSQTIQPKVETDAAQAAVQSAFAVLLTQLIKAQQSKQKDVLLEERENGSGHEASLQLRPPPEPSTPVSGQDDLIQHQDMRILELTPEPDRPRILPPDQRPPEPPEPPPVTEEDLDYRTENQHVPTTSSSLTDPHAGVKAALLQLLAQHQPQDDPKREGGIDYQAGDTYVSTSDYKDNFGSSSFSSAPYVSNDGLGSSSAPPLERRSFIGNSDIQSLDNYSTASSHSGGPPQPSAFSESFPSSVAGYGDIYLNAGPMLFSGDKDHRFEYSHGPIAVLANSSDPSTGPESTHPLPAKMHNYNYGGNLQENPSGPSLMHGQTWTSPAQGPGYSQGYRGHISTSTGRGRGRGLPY

Consider the reported DC50 for these molecules:
CC(=O)N(c1ccc(-c2ccc(OCC3CCN(CC(=O)N[C@H](C(=O)N4C[C@H](O)C[C@H]4C(=O)N[C@@H](C)c4ccc(-c5scnc5C)cc4)C(C)(C)C)CC3)nc2)cc1)[C@H]1CC[C@H](Nc2ncc3ccccc3n2)CC1 = 100 to 500 nM
CC(=O)N(c1ccc(-c2cnn(C3CCN(CC(=O)N[C@H](C(=O)N4C[C@H](O)C[C@H]4C(=O)N[C@@H](C)c4ccc(-c5scnc5C)cc4)C(C)(C)C)CC3)c2)cc1)[C@H]1CC[C@H](Nc2ncc3ccccc3n2)CC1 = 1000 to 3000 nM

// query Bench note: what DC50 did `CC(=O)N(c1ccc(-c2ccc(OCCOCC(=O)N[C@H](C(=O)N3C[C@H](O)C[C@H]3C(=O)N[C@@H](C)c3ccc(-c4scnc4C)cc3)C(C)(C)C)nc2)cc1)[C@H]1CC[C@H](Nc2ncc3ccccc3n2)CC1` show?
// result 500 to 1000 nM

###

Reported DC50 by item:
molecular target: CDK12 (Homo sapiens, UniProt Q9NYV4); assay: Western blot degradation of CDK12 (Example 3); assay type: cell-based; set-up: degradation of CDK12/13 protein in leukemia cells KASUMI-1, MV4-11, and Jurkat; endogenous in cells; details: DC50 classes; cell line not given; read-out: CDK12 degradation Activity
Sequence (Q9NYV4 whole entry): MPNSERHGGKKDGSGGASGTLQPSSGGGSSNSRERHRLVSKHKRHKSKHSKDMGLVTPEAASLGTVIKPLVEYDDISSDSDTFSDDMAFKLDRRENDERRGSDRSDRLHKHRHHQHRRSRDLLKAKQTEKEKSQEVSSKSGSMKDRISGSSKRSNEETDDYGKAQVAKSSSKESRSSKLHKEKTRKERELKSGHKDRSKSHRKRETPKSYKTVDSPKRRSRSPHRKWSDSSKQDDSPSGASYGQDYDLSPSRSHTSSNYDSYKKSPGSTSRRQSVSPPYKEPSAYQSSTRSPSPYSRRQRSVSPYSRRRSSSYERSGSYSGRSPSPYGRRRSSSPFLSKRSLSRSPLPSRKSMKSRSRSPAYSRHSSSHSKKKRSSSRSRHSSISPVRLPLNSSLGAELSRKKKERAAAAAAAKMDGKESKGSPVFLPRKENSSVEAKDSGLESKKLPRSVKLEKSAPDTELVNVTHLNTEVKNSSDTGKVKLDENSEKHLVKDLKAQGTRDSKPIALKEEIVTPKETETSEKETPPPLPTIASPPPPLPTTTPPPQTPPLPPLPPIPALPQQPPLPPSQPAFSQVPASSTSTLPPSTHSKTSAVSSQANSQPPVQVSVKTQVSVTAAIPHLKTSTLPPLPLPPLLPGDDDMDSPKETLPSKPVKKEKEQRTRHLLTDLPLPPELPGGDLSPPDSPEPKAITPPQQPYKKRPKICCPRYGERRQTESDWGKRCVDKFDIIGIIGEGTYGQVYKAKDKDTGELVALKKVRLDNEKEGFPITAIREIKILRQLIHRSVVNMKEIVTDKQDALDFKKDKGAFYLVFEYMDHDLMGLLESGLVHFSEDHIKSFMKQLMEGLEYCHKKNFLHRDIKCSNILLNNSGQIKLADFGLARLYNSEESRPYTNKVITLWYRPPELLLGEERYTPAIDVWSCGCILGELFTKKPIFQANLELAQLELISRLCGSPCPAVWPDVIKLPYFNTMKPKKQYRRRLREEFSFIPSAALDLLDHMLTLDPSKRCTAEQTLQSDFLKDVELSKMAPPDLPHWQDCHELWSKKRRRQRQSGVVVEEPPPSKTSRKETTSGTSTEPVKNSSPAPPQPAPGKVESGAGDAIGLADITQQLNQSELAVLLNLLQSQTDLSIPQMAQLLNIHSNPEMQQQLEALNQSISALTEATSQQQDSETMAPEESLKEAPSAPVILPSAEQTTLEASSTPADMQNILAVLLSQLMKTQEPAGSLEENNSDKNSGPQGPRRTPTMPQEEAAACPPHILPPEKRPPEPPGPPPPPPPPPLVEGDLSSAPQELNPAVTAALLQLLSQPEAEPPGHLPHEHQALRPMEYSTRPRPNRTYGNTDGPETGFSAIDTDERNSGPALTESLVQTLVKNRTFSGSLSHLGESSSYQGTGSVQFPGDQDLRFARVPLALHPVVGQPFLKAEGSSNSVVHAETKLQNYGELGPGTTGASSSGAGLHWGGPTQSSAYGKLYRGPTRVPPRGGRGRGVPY
Sequence (O75909 whole entry partner): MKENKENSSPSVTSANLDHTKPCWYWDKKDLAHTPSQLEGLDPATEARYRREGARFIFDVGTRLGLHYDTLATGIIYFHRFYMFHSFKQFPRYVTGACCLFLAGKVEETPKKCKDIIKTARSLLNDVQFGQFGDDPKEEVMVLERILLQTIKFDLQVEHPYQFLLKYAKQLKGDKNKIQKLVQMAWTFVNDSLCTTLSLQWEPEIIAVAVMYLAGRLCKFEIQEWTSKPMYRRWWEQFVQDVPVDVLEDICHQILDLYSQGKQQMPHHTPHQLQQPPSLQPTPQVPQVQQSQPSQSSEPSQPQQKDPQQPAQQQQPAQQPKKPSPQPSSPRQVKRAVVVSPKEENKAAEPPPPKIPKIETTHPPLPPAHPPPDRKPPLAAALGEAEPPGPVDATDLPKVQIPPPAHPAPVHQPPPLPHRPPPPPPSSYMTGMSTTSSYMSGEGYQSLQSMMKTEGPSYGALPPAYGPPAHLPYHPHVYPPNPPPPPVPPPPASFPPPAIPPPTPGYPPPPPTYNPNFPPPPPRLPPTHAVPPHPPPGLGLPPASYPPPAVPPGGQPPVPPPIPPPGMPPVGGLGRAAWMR

Consider the reported DC50 for these compounds:
CC(=O)N(c1ccc(-c2cnc(OCC3CCN(CC(=O)N[C@H](C(=O)N4C[C@H](O)C[C@H]4C(=O)N[C@@H](C)c4ccc(-c5scnc5C)cc4)C(C)(C)C)CC3)nc2)cc1)[C@H]1CC[C@H](Nc2ncc3ccccc3n2)CC1 [Formula 134] = 500 to 1000 nM
CC(=O)N(c1ccc(-c2cnc(N3CCN(Cc4cnn([C@H](C(=O)N5C[C@H](O)C[C@H]5C(=O)N[C@@H](C)c5ccc(-c6scnc6C)cc5)C(C)C)c4)CC3)nc2)cc1)[C@H]1CC[C@H](Nc2ncc3ccccc3n2)CC1 [Formula 153] = 100 to 500 nM
CC(=O)N(c1ccc(-c2cnc(N3CCN(c4cnn([C@H](C(=O)N5C[C@H](O)C[C@H]5C(=O)N[C@@H](C)c5ccc(-c6scnc6C)cc5)C(C)C)c4)CC3)nc2)cc1)[C@H]1CC[C@H](Nc2ncc3ccccc3n2)CC1 [Formula 154] = 100 to 500 nM
CC(=O)N(c1ccc(-c2ccc(OC3CCN(CC(=O)N[C@H](C(=O)N4C[C@H](O)C[C@H]4C(=O)N[C@@H](C)c4ccc(-c5scnc5C)cc4)C(C)(C)C)CC3)nc2)cc1)[C@H]1CC[C@H](Nc2ncc3ccccc3n2)CC1 [Formula 135] = 500 to 1000 nM
CC(=O)N(c1ccc(N2CCN(c3ccc4c(c3)C(=O)N(C3CCC(=O)NC3=O)C4=O)CC2)cc1)[C@H]1CC[C@H](Nc2ncc3ccccc3n2)CC1 (stereo partly drawn) [Formula 104] = 3000 to 10000 nM
CC(=O)N(c1ccc(-c2cnc(N3CCN(C(=O)N[C@H](C(=O)N4C[C@H](O)C[C@H]4C(=O)N[C@@H](C)c4ccc(-c5scnc5C)cc4)C(C)(C)C)CC3)nc2)cc1)[C@H]1CC[C@H](Nc2ncc3ccccc3n2)CC1 [Formula 146] = 3000 to 10000 nM
CC(=O)N(c1ccc(N2CCN(C(=O)CNc3ccc4c(c3)C(=O)N(C3CCC(=O)NC3=O)C4=O)CC2)cc1)[C@H]1CC[C@H](Nc2ncc3ccccc3n2)CC1 (stereo partly drawn) [Formula 101] = 1000 to 3000 nM
CC(=O)N(c1ccc(-c2cnc(N3CCN(c4ccc5c(c4)C(=O)N(C4CCC(=O)NC4=O)C5=O)CC3)nc2)cc1)[C@H]1CC[C@H](Nc2ncc3ccccc3n2)CC1 (stereo partly drawn) [Formula 107] = < 100 nM

Now look at this entry.
// query Bench note: what DC50 did CC(=O)N(c1ccc(-c2cnc(OC3CCN(CC(=O)N[C@H](C(=O)N4C[C@H](O)C[C@H]4C(=O)N[C@@H](C)c4ccc(-c5scnc5C)cc4)C(C)(C)C)CC3)nc2)cc1)[C@H]1CC[C@H](Nc2ncc3ccccc3n2)CC1 [Formula 136] show?
// result 500 to 1000 nM
